- system.name: full-length AimR (wild-type) (Bacillus phage SPbeta)
- Construct: 6xHis (C); made in house; host or cells: E. coli BL21 (DE3)
- Sequence (O64094 whole entry): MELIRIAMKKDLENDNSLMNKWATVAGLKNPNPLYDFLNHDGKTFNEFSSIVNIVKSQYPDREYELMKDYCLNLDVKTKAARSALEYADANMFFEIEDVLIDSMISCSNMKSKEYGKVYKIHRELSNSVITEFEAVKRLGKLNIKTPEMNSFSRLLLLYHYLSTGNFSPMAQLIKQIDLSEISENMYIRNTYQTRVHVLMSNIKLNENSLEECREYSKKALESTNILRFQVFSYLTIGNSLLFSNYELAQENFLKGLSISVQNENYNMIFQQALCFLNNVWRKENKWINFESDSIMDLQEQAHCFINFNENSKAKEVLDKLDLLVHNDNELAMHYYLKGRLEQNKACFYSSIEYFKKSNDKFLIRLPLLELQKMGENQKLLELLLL
- test.description: Isothermal titration calorimetry (ITC), AimP vs wild-type AimR
- Set-up: species or system Bacillus subtilis SPbeta phage
- condition.label: wild-type full-length AimR 10–20 μM in cell, AimP 200–500 μM in syringe; 20 mM Tris-HCl (pH 8.0), 150 mM NaCl; 25°C; MicroCal iTC200; read-out: Kd (dissociation constant) for AimP binding
Ends that are not written are not given here.
assay.readout: pKd
Just so you know, pKd here is -log10 of the concentration in molar units; reply with that number alone.

Q: Need pKd of GMPRGA [AimP] , thanks.
Ans: 7.40
